Data origin: patent US8580833B2

Test system UniProt:Q15109, pIC50 listed for each of the compounds.
pIC50: −log10 of the molar value. Where a name gives a salt, the structure may show the parent alone.
Readout type: pIC50

> print(dat)
                                   compound  readout.type  result
1  CCCCc1nc(-c2ccc(OC[C@H](O)CNC)cc2)cn1-c1ccc(Oc2ccc(Cl)cc2)cc1 [Example 9, dihydrochloride]         pIC50    5.80
2  CCCCc1nc(-c2ccc(OC[C@@H](O)CN(C)C)cc2)cn1-c1ccc(Oc2ccc(Cl)cc2)cc1 [Example 3, dihydrochloride]         pIC50    6.10
3  CCOCc1nc(-c2ccc(OC[C@@H](O)CNC)cc2)cn1-c1ccc(Oc2ccc(Cl)cc2)cc1 [Example 14, dihydrochloride]         pIC50    5.63
4  CCOCc1nc(-c2ccc(OC[C@H](O)CNC)cc2)cn1-c1ccc(Oc2ccc(Cl)cc2)cc1 [Example 13, dihydrochloride]         pIC50    5.67

###

Structures can show the parent of a compound that is named as a salt.
Test system RAGE (sRAGE) with β-amyloid as the RAGE ligand (Homo sapiens, UniProt Q15109), IC50 listed for each of the compounds.
Readout type: IC50

> print(dat)
                                   compound   result
1  CCCCc1nc(-c2ccc(OC[C@H](O)CN(CC)CC)cc2)cn1-c1ccc(Oc2ccc(Cl)cc2)cc1 [Example 2, dihydrochloride]   760 nM
2  CCOCc1nc(-c2ccc(OC[C@H](O)CN(C)C)cc2)cn1-c1ccc(Oc2ccc(Cl)cc2)cc1 [Example 5, dihydrochloride]  1020 nM
3  CCCCc1nc(-c2ccc(OC[C@@H](O)CNCC)cc2)cn1-c1ccc(Oc2ccc(Cl)cc2)cc1 [Example 12, dihydrochloride]  1190 nM
4  CCCCc1nc(-c2ccc(OC[C@H](O)CNCC)cc2)cn1-c1ccc(Oc2ccc(Cl)cc2)cc1 [Example 11, dihydrochloride]  1020 nM
5  CCNC[C@@H](O)COc1ccc(-c2cn(-c3ccc(Oc4ccc(Cl)cc4)cc3)c(COCC)n2)cc1 [Example 15, dihydrochloride]  2470 nM
6  CCOCc1nc(-c2ccc(OC[C@@H](O)CN(CC)CC)cc2)cn1-c1ccc(Oc2ccc(Cl)cc2)cc1 [Example 8, dihydrochloride]  1260 nM

###

Target entity: RAGE (sRAGE) with S100b as the RAGE ligand (Homo sapiens)
Sequence (Q15109 23-342 limits assumed): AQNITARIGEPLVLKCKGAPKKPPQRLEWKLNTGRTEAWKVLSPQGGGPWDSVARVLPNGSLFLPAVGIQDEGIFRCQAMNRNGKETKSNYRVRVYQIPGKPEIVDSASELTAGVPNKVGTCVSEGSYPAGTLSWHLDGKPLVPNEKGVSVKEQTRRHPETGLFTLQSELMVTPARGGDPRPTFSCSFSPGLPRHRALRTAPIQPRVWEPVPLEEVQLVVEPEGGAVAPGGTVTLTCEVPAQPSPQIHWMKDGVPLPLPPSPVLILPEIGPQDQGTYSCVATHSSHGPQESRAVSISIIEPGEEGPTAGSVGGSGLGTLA
Where a name gives a salt, the structure may show the parent alone.
Readout type: IC50

> print(dat)
                                   compound  readout.type   result
1  CCOCc1nc(-c2ccc(OC[C@@H](O)CN(CC)CC)cc2)cn1-c1ccc(Oc2ccc(Cl)cc2)cc1 [Example 8, dihydrochloride]          IC50   800 nM
2  CCOCc1nc(-c2ccc(OC[C@H](O)CN(CC)CC)cc2)cn1-c1ccc(Oc2ccc(Cl)cc2)cc1 [Example 7, dihydrochloride]          IC50  1050 nM
3  CCCCc1nc(-c2ccc(OC[C@H](O)CNC)cc2)cn1-c1ccc(Oc2ccc(Cl)cc2)cc1 [Example 9, dihydrochloride]          IC50  1130 nM
4  CCCCc1nc(-c2ccc(OC[C@@H](O)CNC)cc2)cn1-c1ccc(Oc2ccc(Cl)cc2)cc1 [Example 10, dihydrochloride]          IC50  1140 nM
5  CCCCc1nc(-c2ccc(OC[C@H](O)CNCC)cc2)cn1-c1ccc(Oc2ccc(Cl)cc2)cc1 [Example 11, dihydrochloride]          IC50   810 nM
6  CCOCc1nc(-c2ccc(OC[C@H](O)CN(C)C)cc2)cn1-c1ccc(Oc2ccc(Cl)cc2)cc1 [Example 5, dihydrochloride]          IC50   710 nM
